test system: IGROV-1; assay: NCI tumour cell line growth inhibition, 48 h
Activity calls are given as the source filed them. No stated cut-off is given here; in the data, active = GI50 up to about 1.1 µM and inactive = higher.
Please state which outcome applies, choosing from active, inactive

The following molecules have reported results that may help.
Problem: Which outcome was assigned to `O=C(O)/C=C\C(=O)Nc1ccc(S(=O)(=O)c2ccc(NC(=O)/C=C\C(=O)O)cc2)cc1` in this test?
Solution: inactive

Problem: Lab log entry: CCN(CC)CC1c2ccccc2C(CNc2ccccc2)N1C (stereo unspecified) — outcome as called in the assay?
Solution: inactive

Problem: Give the logged outcome of this assay for the following molecule: CC(=O)N1CCOC12N=NC(C)(C)O2 (stereo unspecified)
Solution: inactive

Others:
Problem: Entry `O=c1[nH]c2ccccc2nc1CBr` : call = ?
Solution: inactive

Problem: For Cc1ccc(S(=O)(=O)NCCCCC(N)C(=O)O)cc1 (stereo unspecified) , what call appears in the results of this test?
Solution: inactive

Problem: What did the test return for `CCN(CC)CCNc1ccc2ncn3c4c(OC)ccc(OC)c4c(=O)c1c23` ?
Solution: inactive

Problem: How did this test come out for `COC[C@H](Cc1ccccc1)/N=C/c1ccccc1` ?
Solution: inactive

Problem: Test call, this molecule: `C(=N/Nc1ccc(-c2nc3ccccc3[nH]2)cc1)/c1c(-c2ccccc2)[nH]c2ccccc12`
Solution: active

Problem: // param item: `COc1c(OC)c(OC)c(-c2cc(=O)c3c(OC)c(OC)c(OC)c(OC)c3o2)c(OC)c1OC` ; yields the recorded call
Solution: inactive

Problem: How was `N=C(N)N/N=C/c1c(-c2ccc(Cl)c([N+](=O)[O-])c2)nc2sccn12` classified in this test?
Solution: inactive

Problem: Write down the call the test reported for this molecule. Item: CC(/C=C/C(=O)NO)=C\C(C)C(=O)c1ccc(N(C)C)cc1 (stereo unspecified)
Solution: active
